The reported numbers originate from paper PMC12675387.

- TARGET ENTITY: h5-HT1A receptor (Homo sapiens, UniProt P08908)
- Sequence (P08908 1-422): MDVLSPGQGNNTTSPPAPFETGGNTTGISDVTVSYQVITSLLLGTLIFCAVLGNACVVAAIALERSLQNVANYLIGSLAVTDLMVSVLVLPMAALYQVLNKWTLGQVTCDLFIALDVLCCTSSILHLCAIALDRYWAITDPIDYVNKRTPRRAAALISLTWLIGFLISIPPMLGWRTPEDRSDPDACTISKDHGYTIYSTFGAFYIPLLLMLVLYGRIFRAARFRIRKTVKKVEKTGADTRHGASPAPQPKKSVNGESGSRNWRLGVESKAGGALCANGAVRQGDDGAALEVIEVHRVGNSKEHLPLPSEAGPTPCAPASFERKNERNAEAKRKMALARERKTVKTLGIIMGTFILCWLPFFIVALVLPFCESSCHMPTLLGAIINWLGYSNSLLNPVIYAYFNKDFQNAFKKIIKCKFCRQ
VALUE TYPE: Ki

Examples with their reported Ki follow.
C=CCOc1cc(OC)c(CC(C)N)c(OC)c1 (stereo not drawn)    > 5.6 µM
COc1cc(OCC(F)F)cc(OC)c1CC(C)N (stereo not drawn)    > 5.6 µM

Consider the molecule COc1cc(OCC(F)(F)F)cc(OC)c1CC(C)N (stereo not drawn) and give its measured Ki.
> 5.6 µM
